Target Under Test: Human PD-L1/PD-1 (Homo sapiens)
Construct: TVMV protease cleavage site (C); made in house; host or cells: HEK293T cells
Sequence (Q9NZQ7 with tags, fused parts or gaps): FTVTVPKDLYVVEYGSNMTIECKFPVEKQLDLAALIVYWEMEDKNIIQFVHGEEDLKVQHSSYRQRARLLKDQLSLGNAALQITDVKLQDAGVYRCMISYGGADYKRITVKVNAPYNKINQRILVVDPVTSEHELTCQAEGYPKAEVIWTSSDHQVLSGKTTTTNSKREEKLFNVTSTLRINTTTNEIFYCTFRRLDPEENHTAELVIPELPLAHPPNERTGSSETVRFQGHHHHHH
Test Method Notes: HTRF Human PD-L1/PD-1 binding assay (PD-1-Ig/PD-L1-His)
Experimental Conditions: PD-L1-His 10 nM, PD-1-Ig 20 nM; class symbol; read-out: HTRF Human PD-L1/PD-1 Binding Assay IC50 Range
pIC50: −log10 of the molar value. Where a SMILES comes first, the peptide text is derived from it. Bridges are numbered along the chain shown (N, C = ends). [ ]: non-standard residue; d: D form. Phe(3,4,5-F3) = N[C@@H](Cc1cc(F)c(F)c(F)c1)C(=O)O; NMeF = CN[C@@H](Cc1ccccc1)C(=O)O; NMeNle = CCCC[C@H](NC)C(=O)O
Outcome Measure: pIC50

INSERT INTO measurements (molecule, outcome_measure, result) VALUES
  ('CCCC[C@H]1C(=O)N(C)[C@@H](CCCC)C(=O)N[C@@H](C)C(=O)N[C@H](C(=O)NCC(N)=O)CSCC(=O)N[C@@H](Cc2ccc(O)cc2)C(=O)N(C)[C@@H](C)C(=O)N[C@@H](CC(N)=O)C(=O)N2CCC[C@H]2C(=O)N[C@@H](Cc2cnc[nH]2)C(=O)N[C@@H](CCC(N)=O)C(=O)N2CCOC[C@H]2C(=O)N[C@@H](Cc2c[nH]c3ccccc23)C(=O)N[C@@H](CO)C(=O)N[C@@H](Cc2c[nH]c3ccccc23)C(=O)N1C', 'pIC50', '7.00 to 8.00'),
  ('CCCC[C@H]1C(=O)N2CCC[C@@H]2C(=O)N[C@@H](CC(=O)O)C(=O)N[C@@H](C(C)C)C(=O)N(C)[C@@H](Cc2ccccc2)C(=O)N[C@@H](CC(=O)O)C(=O)N2CCC[C@@H]2C(=O)N[C@@H](Cc2c[nH]c3ccccc23)C(=O)N[C@@H](Cc2ccc(O)cc2)C(=O)N[C@@H](CCCCN)C(=O)N[C@H](C(=O)NCC(N)=O)CSCC(=O)N[C@@H](Cc2cc(F)c(F)c(F)c2)C(=O)N(C)[C@@H](Cc2ccccc2)C(=O)N1C [Example 10171] ({CH2CO}-[Phe(3,4,5-F3)][NMeF][NMeNle][dP]DV[NMeF]D[dP]WYKCG-NH2; thioether N-13)', 'pIC50', '7.00 to 8.00');
